System: endogenous TFE3
Test: TFE3 nuclear translocation, immunocytochemistry high-content imaging
Type: cell-based
Conditions: PKIS2 primary screening
The following compounds are shown together with reported TFE3 % values.

[ask] Fill blank: measured TFE3 % of the compound Cc1c2ccc(N(C)c3ccnc(Nc4cccc(S(N)(=O)=O)c4)n3)cc2nn1Cc1ccccc1 [GW787226] is ____.
[reply] 15.06%

[ask] Fill blank: measured TFE3 % of the compound Nc1nc(-c2ccc3c(N)n[nH]c3c2)cc(N2CCCC(NC(=O)c3ccccc3)C2)n1 (centres unmarked) [GSK2286775] is ____.
[reply] 13.75%

###

Test system: SH-SY5Y cells
Test: AK (adenylate kinase) release ToxiLight cytotoxicity assay; further: reference of the scale not given here
Conditions: PKIS2 primary screening
measure name: AK
Give the value as a plain number.

[ask] Fill blank: measured AK of the compound CCn1c(-c2ccncc2)nc2cnccc21 [UNC10225204A] is ____.
[reply] 74.70

[ask] Fill blank: measured AK of the compound COc1cc(Nc2nccc(N3CCC(NC(=O)Nc4cc(C)ccc4C)C3)n2)cc(OC)c1OC (centres unmarked) [GSK1379762] is ____.
[reply] 74.55

[ask] Fill blank: measured AK of the compound CCn1c(-c2nonc2N)nc2ccccc21 [UNC10112830A] is ____.
[reply] 85.29

[ask] Fill blank: measured AK of the compound Cc1ccccc1CC(=O)N1CCc2cc(-c3cn(C)c4ncnc(N)c34)ccc21 [UNC10225254A] is ____.
[reply] 77.66

[ask] Fill blank: measured AK of the compound CCn1c(-c2nonc2N)nc2c(C#CC(C)(C)O)ncc(OCCCCN)c21.O=C(O)C(F)(F)F.O=C(O)C(F)(F)F [UNC10225393A] is ____.
[reply] 69.12

[ask] Fill blank: measured AK of the compound Cc1cc(-c2ccc3c(c2)CC[C@@H](N[C@@H](C)c2ccccc2)C3)cnc1N [GW412617] is ____.
[reply] 35.11

[ask] Fill blank: measured AK of the compound COc1cc2ncn(-c3cc(OCc4ccncc4Br)c(C(N)=O)s3)c2cc1OC [UNC10225386A] is ____.
[reply] 64.35

[ask] Fill blank: measured AK of the compound CS(=O)(=O)c1ccc(-c2nc3n(c2-c2ccncc2)CCC3)cc1 [UNC10224995A] is ____.
[reply] 200.60

[ask] Fill blank: measured AK of the compound COc1cccc(NC(=O)NC2CCN(c3ccnc(Nc4cc(OC)c(OC)c(OC)c4)n3)C2)c1 (centres unmarked) [GSK1379763] is ____.
[reply] 111.80

[ask] Fill blank: measured AK of the compound O=C(O)C(F)(F)F.O=c1[nH]ccc2nc(N[C@@H]3CCNC3)nc(Nc3ccc4c(c3)S(=O)(=O)CC4)c12 [UNC10225451A] is ____.
[reply] 185.61

[ask] Fill blank: measured AK of the compound COc1ccc(Nc2nccc(N3CCC(NC(=O)c4cc5ccccc5s4)C3)n2)cc1 (centres unmarked) [GSK1379738] is ____.
[reply] 106.01
